Molecular target: IRAK4 (Homo sapiens)
Construct: Degradation of IRAK4 in OCI-LY10 was quantitatively measured using Meso Scale Discovery technology; endogenous in cells; host or cells: OCI-LY10
Sequence (Q9NWZ3 whole entry): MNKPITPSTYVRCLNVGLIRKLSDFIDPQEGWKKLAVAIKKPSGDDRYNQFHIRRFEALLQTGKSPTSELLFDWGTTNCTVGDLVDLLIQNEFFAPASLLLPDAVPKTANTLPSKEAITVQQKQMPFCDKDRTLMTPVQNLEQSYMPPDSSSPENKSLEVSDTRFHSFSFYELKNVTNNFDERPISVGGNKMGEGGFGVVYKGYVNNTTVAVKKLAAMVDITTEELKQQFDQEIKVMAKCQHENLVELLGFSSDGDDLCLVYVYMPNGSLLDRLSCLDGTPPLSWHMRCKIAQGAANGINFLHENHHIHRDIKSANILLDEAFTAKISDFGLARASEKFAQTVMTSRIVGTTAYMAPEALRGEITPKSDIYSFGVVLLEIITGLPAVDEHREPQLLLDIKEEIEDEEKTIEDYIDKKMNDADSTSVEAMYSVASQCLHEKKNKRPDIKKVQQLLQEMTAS
Test: IRAK4 MSD Degradation in OCI-LY10
Format: cell-based
Conditions: OCI-LY10 cells, 4 hrs incubation, MSD; read-out: IRAK4 degradation in OCI-LY10 at 4 hrs: DC50
parameterMeasured: DC50

| molecule | assayValue |
| --- | --- |
| Cc1cc2nn([C@H]3CC[C@H](CN4CCC(c5cccc6c5n(C)c(=O)n6C5CCC(=O)NC5=O)C(F)(F)C4)CC3)cc2cc1NC(=O)c1cccc(C(F)(F)F)n1 (some centres unmarked) | > 200 nM |

What value of DC50 has been recorded for this entry: Cn1c(=O)n(C2CCC(=O)NC2=O)c2cccc(C#CC[C@H]3CN(CC4CCC(n5cc(NC(=O)c6cnn7ccc(N8C[C@H]9C[C@@H]8CO9)nc67)c(C(F)F)n5)CC4)CCO3)c21 (some centres unmarked)
> 200 nM

For Cn1c(=O)n(C2CCC(=O)NC2=O)c2cccc(N3CCN([C@@H]4CCN(C[C@H]5CC[C@H](n6cc(NC(=O)c7cnn8ccc(N9C[C@H]%10C[C@@H]9CO%10)nc78)c(C(F)F)n6)CC5)C[C@H]4F)CC3)c21 (some centres unmarked) then?
> 200 nM

Note, next up: CCn1c(=O)n(C2CCC(=O)NC2=O)c2cccc(C#CCOC3CCN(C[C@H]4CC[C@H](n5cc(NC(=O)c6cnn7ccc(N8C[C@H]9C[C@@H]8CO9)nc67)c(C(F)F)n5)CC4)CC3)c21 (some centres unmarked)
< 10 nM

Then Cn1c(=O)n(C2CCC(=O)NC2=O)c2cccc(C3CCN(C[C@H]4CC[C@H](n5cc6cc(NC(=O)c7cccc(C(F)(F)F)n7)ccc6n5)CC4)CC3(F)F)c21 (some centres unmarked) [I-489] ?
> 200 nM

// query: C[C@H]1CN(C[C@H]2CC[C@H](n3cc(NC(=O)c4cnn5ccc(N6C[C@H]7C[C@@H]6CO7)nc45)c(C(F)F)n3)CC2)CC[C@@H]1OCC#Cc1cccc2c1n(C)c(=O)n2C1CCC(=O)NC1=O (some centres unmarked) [I-37]
< 10 nM

Next record, please: Cn1c(=O)n(C2CCC(=O)NC2=O)c2cccc(OC3CCN([C@H]4CC[C@H](n5cc6cc(NC(=O)c7cccc(C(F)(F)F)n7)ncc6n5)CC4)CC3)c21 (some centres unmarked)
> 200 nM

Request: Cn1c(=O)n(C2CCC(=O)NC2=O)c2cccc(C#CCN3CCN(C[C@H]4CC[C@H](n5cc(NC(=O)c6cnn7ccc(N8C9CCC8COC9)nc67)c(C(F)F)n5)CC4)CC3)c21 (some centres unmarked)
< 10 nM

Same read-out for Cn1c(=O)n(C2CCC(=O)NC2=O)c2cccc(C#CCN3CCN(C[C@H]4CC[C@H](n5cc(NC(=O)c6cnn7ccc(N8CC(C)(C)C8)nc67)c(C(F)F)n5)CC4)CC3)c21 (some centres unmarked) ?
> 200 nM

Also need CN1C(=O)CCC(n2c(=O)n(C)c3c(C#CCN4CCN(C[C@H]5CC[C@H](n6cc(NC(=O)c7cnn8ccc(N9C[C@H]%10C[C@@H]9CO%10)nc78)c(C(F)F)n6)CC5)CC4)cccc32)C1=O (some centres unmarked) , thanks.
> 200 nM
